Test system: P388 leukemia ip, CD2F1 mice, survival T/C
Assay: NCI In Vivo Anticancer Drug Screen. Data for tumor model P388 Leukemia (intraperitoneal) in CD2F1 (CDF1) mice
Conditions: endpoint: median survival time; dose: 50.0 mg/kg/injection; schedule: Q01DX009 (ip); vehicle: Klucel (hydroxypropylcellulose) (HPC); higher = longer survival
Toxic doses and inconclusive results are not listed.
measurement_type: T/C

- molecule: "CCn1c(=O)c2[nH]c(I)nc2n(CC)c1=O"
  measurement_type: "T/C"
  result_value: "99 % of control"
- molecule: "c1ccc(Nc2ncnc3ccccc23)cc1"
  measurement_type: "T/C"
  result_value: "102 % of control"
- molecule: "Cc1cccc(N=Cc2ccc(C=Nc3cccc(C)c3C)cc2)c1C"
  measurement_type: "T/C"
  result_value: "92 % of control"

Task item: Any idea what its T/C is? The molecule is "O=c1oc2c(c(=O)n1-c1ccccc1)CC1(CCCCC1)C2"
Reply: 103 % of control

Task item: What would you report for "COc1ccc(CCN2C(=O)C(=O)N(C(C)C)C2=O)cc1OC" ?
Reply: 86 % of control

Task item: What would you report for "CCCCCCCCCCCC(=O)Nc1ncnc2nc[nH]c12" ?
Reply: 93 % of control

Task item: What would you report for CC(=O)NCCSC(NC(=O)Cc1ccccc1)C(=O)O (configuration not stated) ?
Reply: 94 % of control

====

Tested on: P388 leukemia ip, CD2F1 mice, survival T/C
Assay: NCI In Vivo Anticancer Drug Screen. Data for tumor model P388 Leukemia (intraperitoneal) in CD2F1 (CDF1) mice
Conditions: endpoint: median survival time; dose: 200.0 mg/kg/injection; schedule: Q01DX005 (ip); vehicle: saline with Tween-80; higher = longer survival
Inconclusive results and toxic doses are left out.
measurement_type: T/C

Answered cases to consult:
- molecule: "COC1C(C2CC(=O)NC(=O)C2)OC2OC(C)(C)OC21 (stereo unspecified)"
  result_value: "104 % of control"
- molecule: "FC(F)(F)c1cccc(C(Nc2nncs2)Nc2nncs2)c1"
  result_value: "88 % of control"

Task item: Kindly state the measured T/C obtained for "Cc1c(-c2ccncc2)nc2ccccc2c1C(=O)O" with P388 leukemia ip, CD2F1 mice, survival T/C.
Reply: 97 % of control

Task item: What would you report for "NNC(=O)c1oc2ccccc2c1CN(CCO)CCO" ?
Reply: 107 % of control

Task item: What would you report for "CCN(CC)C(=O)c1c(C(=O)OC)c(C)n(NC(N)=O)c1C" ?
Reply: 108 % of control

Task item: What would you report for COC(=O)C1(C2(C(=O)OC)NC(C)=C(c3ccccc3)C(=O)O2)NC(C)=C(c2ccccc2)C(=O)O1 (stereo unspecified) ?
Reply: 91 % of control

Task item: What would you report for "O=C(O)c1nn(-c2ccccc2-c2n[nH]c(=O)[nH]c2=O)c(=O)[nH]c1=O" ?
Reply: 95 % of control

Task item: What would you report for O=C(NS(=O)C1C=CCCC1)OC1CCCCC1c1ccccc1 (stereo unspecified) ?
Reply: 105 % of control

Task item: What would you report for Cc1cc(Cl)cc2c1NC(=O)C2(O)C/C(=N/NC(=O)CC#N)c1cccc([N+](=O)[O-])c1 (stereo unspecified) ?
Reply: 101 % of control

Task item: What would you report for "C/C(=N\NC(=S)Nc1ccc([N+](=O)[O-])cc1S(=O)(=O)O)c1ccccn1" ?
Reply: 103 % of control

Task item: What would you report for "O=C1c2cc([N+](=O)[O-])cc3cc([N+](=O)[O-])cc(c23)C(=O)N1CCCNCCNCCCN1C(=O)c2cc([N+](=O)[O-])cc3cc([N+](=O)[O-])cc(c23)C1=O" ?
Reply: 100 % of control

Task item: What would you report for "CC1(C)COC(c2c(F)cccc2Cl)=N1" ?
Reply: 98 % of control

Task item: What would you report for OCCN1CCOC(O)(c2cccc(C(F)(F)F)c2)C1 (stereo unspecified) ?
Reply: 96 % of control

Task item: What would you report for COc1ccc(C2CC(=O)c3c(O)cc(OC4OC(COC5OC(C)C(O)C(O)C5O)C(O)C(O)C4O)cc3O2)cc1O (stereo unspecified) ?
Reply: 92 % of control

Task item: What would you report for C=CC1=C(C)C2=NC1=CC1=NC(=CC3=C(C)C4=C(O)C(C(=O)OC)C(=C5NC(=C2)C(C)C5CCC(=O)OC/C=C(\C)CCCC(C)CCCC(C)CCCC(C)C)C4=N3)C(CC)=C1C (stereo unspecified) ?
Reply: 92 % of control

Task item: What would you report for "CCn1c2c(c3ccccc3c1=O)C(=O)c1ccccc1-2" ?
Reply: 94 % of control

Task item: What would you report for "O=C(O)[C@@H]1c2ccccc2-c2ccccc2[C@H]1C(=O)O" ?
Reply: 107 % of control
